assay: Intrinsic clearance in rat liver microsomes at 1 uM after 30 mins in presence of NADPH; type: ADME; details: read-out: CLH
Provide the reported microsomal CLint at 1 µM of each item.
Enter your answer as a number in µL/min/mg; do not include the unit.

Request: What does the record list as microsomal CLint at 1 µM for `Nc1ccc(S(=O)(=O)N2CCN(c3ncc(C(O)(C(F)(F)F)C(F)(F)F)cc3-c3ccccc3O)CC2)cn1` ?
Response: 125

Request: What does the record list as microsomal CLint at 1 µM for `CCn1cc(-c2cc(C(O)(C(F)(F)F)C(F)(F)F)cnc2N2CCN(S(=O)(=O)c3ccc(N)nc3)CC2)cn1` ?
Response: 194

Request: What does the record list as microsomal CLint at 1 µM for `Nc1ccc(S(=O)(=O)N2CCN(c3ncc(C(O)(C(F)(F)F)C(F)(F)F)cc3C#CCCO)CC2)cn1` ?
Response: 68

Request: What does the record list as microsomal CLint at 1 µM for `Cc1cncc(-c2cc(C(O)(C(F)(F)F)C(F)(F)F)cnc2N2CCN(S(=O)(=O)c3ccc(N)nc3)CC2)c1` ?
Response: 259

Request: What does the record list as microsomal CLint at 1 µM for `CS(=O)(=O)c1ccc(-c2cc(C(O)(C(F)(F)F)C(F)(F)F)cnc2N2CCN(S(=O)(=O)c3ccc(N)nc3)CC2)cc1` ?
Response: 103

###

Provide the reported microsomal CLint at 1 µM of each item.
assay: Intrinsic clearance in rat liver microsomes at 1 uM after 30 mins in presence of NADPH; assay type: ADME; conditions: read-out: CLH
Entry format: amount then unit.

Request: What does the record list as microsomal CLint at 1 µM for `Nc1ccc(S(=O)(=O)N2CCN(c3ncc(C(O)(C(F)(F)F)C(F)(F)F)cc3-c3cccc4[nH]ncc34)CC2)cn1` ?
Response: 93 µL/min/mg

Request: What does the record list as microsomal CLint at 1 µM for `Nc1ccc(S(=O)(=O)N2CCN(c3ncc(C(O)(C(F)(F)F)C(F)(F)F)cc3C#CCO)CC2)cn1` ?
Response: 65 µL/min/mg

Request: What does the record list as microsomal CLint at 1 µM for `NC(=O)c1cccc(-c2cc(C(O)(C(F)(F)F)C(F)(F)F)cnc2N2CCN(S(=O)(=O)c3ccc(N)nc3)CC2)c1` ?
Response: 63 µL/min/mg

Request: What does the record list as microsomal CLint at 1 µM for `Nc1ccc(S(=O)(=O)N2CCN(c3ncc(C(O)(C(F)(F)F)C(F)(F)F)cc3-c3ccc4[nH]ncc4c3)CC2)cn1` ?
Response: 88 µL/min/mg

###

test: AUC in Sprague-Dawley rat at 10 mg/kg, po; format: ADME, organism-based; set-up: dose 10 mg/kg, route oral; conditions: plasma
Observed Property: AUC (µM·h)
Enter your answer as a number in µM·h; do not include the unit.

Request: What does the record list as AUC for `Nc1ccc(S(=O)(=O)N2CCN(c3ncc(C(O)(C(F)(F)F)C(F)(F)F)cc3-c3cccnc3)CC2)cn1` ?
Response: 4.74

Request: What does the record list as AUC for `Cn1cc(-c2cc(C(O)(C(F)(F)F)C(F)(F)F)cnc2N2CCN(S(=O)(=O)c3ccc(N)nc3)CC2)cn1` ?
Response: 2.8

###

Provide the reported log10 of IC50 of each item.
Target: Hexokinase-4 (Homo sapiens, UniProt P35557)
Sequence (P35557 whole entry): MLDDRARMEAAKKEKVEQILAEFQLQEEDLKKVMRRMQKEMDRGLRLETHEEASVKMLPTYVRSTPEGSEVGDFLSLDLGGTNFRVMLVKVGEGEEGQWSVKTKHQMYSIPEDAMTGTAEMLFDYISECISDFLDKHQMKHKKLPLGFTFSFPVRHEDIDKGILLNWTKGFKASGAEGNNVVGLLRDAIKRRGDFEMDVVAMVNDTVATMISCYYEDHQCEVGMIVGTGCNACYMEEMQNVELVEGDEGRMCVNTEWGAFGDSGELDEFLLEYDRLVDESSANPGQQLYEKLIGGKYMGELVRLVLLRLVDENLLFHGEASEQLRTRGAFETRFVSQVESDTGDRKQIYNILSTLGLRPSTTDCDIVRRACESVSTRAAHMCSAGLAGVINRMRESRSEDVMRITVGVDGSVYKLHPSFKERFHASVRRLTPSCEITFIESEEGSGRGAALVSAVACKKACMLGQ
Assay: Inhibition of fluorescein-labeled human GK interaction with biotin-labeled human GKRP compound incubated for 20 mins prior to addition of fluorescein-labeled GK measured after 2 to 4 hrs by AlphaScreen assay
Form field - Quantity: IC50; Unit: nM; Scale: log10

Request: // fetch Hexokinase-4 (Homo sapiens, UniProt P35557) log10 of IC50 for `CCn1cc(-c2cc(C(O)(C(F)(F)F)C(F)(F)F)cnc2N2CCN(S(=O)(=O)c3ccc(N)nc3)CC2)cn1`
Response: 0.70

Request: // fetch Hexokinase-4 (Homo sapiens, UniProt P35557) log10 of IC50 for `CS(=O)(=O)Nc1cccc(-c2cc(C(O)(C(F)(F)F)C(F)(F)F)cnc2N2CCN(S(=O)(=O)c3ccc(N)nc3)CC2)c1`
Response: 2.49

Request: // fetch Hexokinase-4 (Homo sapiens, UniProt P35557) log10 of IC50 for `Nc1ccc(S(=O)(=O)N2CCN(c3ncc(C(O)(C(F)(F)F)C(F)(F)F)cc3-c3cncc(F)c3)CC2)cn1`
Response: 1.04

Request: // fetch Hexokinase-4 (Homo sapiens, UniProt P35557) log10 of IC50 for `Nc1ccc(S(=O)(=O)N2CCN(c3ncc(C(O)(C(F)(F)F)C(F)(F)F)cc3C#CC3CC3)CC2)cn1`
Response: 1.52

Request: // fetch Hexokinase-4 (Homo sapiens, UniProt P35557) log10 of IC50 for `Nc1ccc(S(=O)(=O)N2CCN(c3ncc(C(O)(C(F)(F)F)C(F)(F)F)cc3-c3ccc4ocnc4c3)CC2)cn1`
Response: 1.30

Request: // fetch Hexokinase-4 (Homo sapiens, UniProt P35557) log10 of IC50 for `Nc1ccc(S(=O)(=O)N2CCN(c3ncc(C(O)(C(F)(F)F)C(F)(F)F)cc3-c3ccc(F)cc3)CC2)cn1`
Response: 1.04

Request: // fetch Hexokinase-4 (Homo sapiens, UniProt P35557) log10 of IC50 for `Cc1c(-c2cc(C(O)(C(F)(F)F)C(F)(F)F)cnc2N2CCN(S(=O)(=O)c3ccc(N)nc3)CC2)cnn1C`
Response: 1.60

Request: // fetch Hexokinase-4 (Homo sapiens, UniProt P35557) log10 of IC50 for `Nc1ccc(S(=O)(=O)N2CCN(c3ncc(C(O)(C(F)(F)F)C(F)(F)F)cc3-c3cc4ccccc4[nH]3)CC2)cn1`
Response: 1.43

Request: // fetch Hexokinase-4 (Homo sapiens, UniProt P35557) log10 of IC50 for `NC(=O)c1cccc(-c2cc(C(O)(C(F)(F)F)C(F)(F)F)cnc2N2CCN(S(=O)(=O)c3ccc(N)nc3)CC2)c1`
Response: 1.70

Request: // fetch Hexokinase-4 (Homo sapiens, UniProt P35557) log10 of IC50 for `Nc1ccc(S(=O)(=O)N2CCN(c3ncc(C(O)(C(F)(F)F)C(F)(F)F)cc3C3CC3)CC2)cn1`
Response: 2.78

Request: // fetch Hexokinase-4 (Homo sapiens, UniProt P35557) log10 of IC50 for `Cc1nc2cc(-c3cc(C(O)(C(F)(F)F)C(F)(F)F)cnc3N3CCN(S(=O)(=O)c4ccc(N)nc4)CC3)ccc2o1`
Response: 1.18

Request: // fetch Hexokinase-4 (Homo sapiens, UniProt P35557) log10 of IC50 for `Nc1ccc(S(=O)(=O)N2CCN(c3ncc(C(O)(C(F)(F)F)C(F)(F)F)cc3Br)CC2)cn1`
Response: 2.05

Request: // fetch Hexokinase-4 (Homo sapiens, UniProt P35557) log10 of IC50 for `Nc1ccc(S(=O)(=O)N2CCN(c3ncc(C(O)(C(F)(F)F)C(F)(F)F)cc3-c3ccc4sccc4c3)CC2)cn1`
Response: 1.67

Request: // fetch Hexokinase-4 (Homo sapiens, UniProt P35557) log10 of IC50 for `Cn1cc(-c2cc(C(O)(C(F)(F)F)C(F)(F)F)cnc2N2CCN(S(=O)(=O)c3ccc(N)nc3)CC2)cn1`
Response: 0.00

Request: // fetch Hexokinase-4 (Homo sapiens, UniProt P35557) log10 of IC50 for `COc1ccc(-c2cc(C(O)(C(F)(F)F)C(F)(F)F)cnc2N2CCN(S(=O)(=O)c3ccc(N)nc3)CC2)cn1`
Response: 1.20

Request: // fetch Hexokinase-4 (Homo sapiens, UniProt P35557) log10 of IC50 for `CC(C)(C)n1cc(-c2cc(C(O)(C(F)(F)F)C(F)(F)F)cnc2N2CCN(S(=O)(=O)c3ccc(N)nc3)CC2)cn1`
Response: 1.94

Request: // fetch Hexokinase-4 (Homo sapiens, UniProt P35557) log10 of IC50 for `Nc1ccc(S(=O)(=O)N2CCN(c3ncc(C(O)(C(F)(F)F)C(F)(F)F)cc3-c3ccoc3)CC2)cn1`
Response: 1.28

Request: // fetch Hexokinase-4 (Homo sapiens, UniProt P35557) log10 of IC50 for `CC(C)n1cc(-c2cc(C(O)(C(F)(F)F)C(F)(F)F)cnc2N2CCN(S(=O)(=O)c3ccc(N)nc3)CC2)cn1`
Response: 1.36

Request: // fetch Hexokinase-4 (Homo sapiens, UniProt P35557) log10 of IC50 for `Nc1ccc(S(=O)(=O)N2CCN(c3ncc(C(O)(C(F)(F)F)C(F)(F)F)cc3-c3cccc(F)c3)CC2)cn1`
Response: 0.90

Request: // fetch Hexokinase-4 (Homo sapiens, UniProt P35557) log10 of IC50 for `Nc1ccc(S(=O)(=O)N2CCN(c3ncc(C(O)(C(F)(F)F)C(F)(F)F)cc3-c3ccc4scnc4c3)CC2)cn1`
Response: 1.54

Request: // fetch Hexokinase-4 (Homo sapiens, UniProt P35557) log10 of IC50 for `Nc1ccc(S(=O)(=O)N2CCN(c3ncc(C(O)(C(F)(F)F)C(F)(F)F)cc3-c3ccccc3F)CC2)cn1`
Response: 0.85
